Listed here are compounds together with their documented inhibition at 20 ppm.
system: Gaeumannomyces Graminis; assay: Gaeumannomyces graminis / liquid culture (take-all of cereals); assay type: cell-based; conditions: PDB potato dextrose broth, 24° C., 4-5 days after application, read-out: disease control (inhibition of growth, photometrically)

>  <GIVEN_SMILES>
Cc1ccc(-c2cc3c(cc2Cl)COB3O)o1

>  <inhibition at 20 ppm>
≥ 80%

$$$$
>  <GIVEN_SMILES>
OB1OCc2cc(F)c(-c3cncc(Cl)n3)cc21

>  <inhibition at 20 ppm>
≥ 80%

$$$$
>  <GIVEN_SMILES>
OB1OCc2cc(F)c(-c3ncno3)cc21

>  <inhibition at 20 ppm>
≥ 80%

$$$$
>  <GIVEN_SMILES>
OB1OCc2cc(Cl)c(-c3sccc3Br)cc21

>  <inhibition at 20 ppm>
≥ 80%

$$$$
>  <GIVEN_SMILES>
OB1OCc2cc(Cl)c(-c3cncc(C(F)(F)F)c3)cc21

>  <inhibition at 20 ppm>
≥ 80%

$$$$
>  <GIVEN_SMILES>
OB1OCc2cc(Cl)c(-c3cncs3)cc21

>  <inhibition at 20 ppm>
≥ 80%

$$$$

**Query** For `Cn1cc(-c2cc3c(cc2Cl)COB3O)cn1` , what is its reported inhibition at 20 ppm?
**Result** ≥ 80%

**Query** Okay, and `OB1OCc2cc(Cl)c(-c3cc(Br)cs3)cc21` ?
**Result** ≥ 80%

**Query** Likewise for `Cc1cc(-c2cc3c(cc2Cl)COB3O)c(C)s1` ?
**Result** ≥ 80%

**Query** And what about the compound `OB1OCc2cc(Cl)c(-c3cc4ccccc4[nH]3)cc21` ?
**Result** ≥ 80%

**Query** Another compound: `N#Cc1ccc(-c2cc3c(cc2Cl)COB3O)o1`
**Result** ≥ 80%

* * *

Tested on: Monographella Nivalis(Microdochium Nivale)
Test: Monographella nivalis (Microdochium nivale) / liquid culture (foot rot cereals)
Type: cell-based
Conditions: PDB potato dextrose broth, 24° C., 4-5 days after application, read-out: disease control (inhibition of growth, photometrically)
Method: 14 Monographella Nivalis(Microdochium Nivale)/Liquid Culture (Foot Rot Cereals) Conidia of the fungus from cryogenic storage were directly mixed into nutrient broth (PDB potato dextrose broth). After placing a DMSO solution of test compound into a 96-well microtiter plate, the nutrient broth containing the fungal spores was added. The test plates were incubated at 24° C. and the inhibition of growth was determined photometrically 4-5 days after application.
READOUT_NAME: inhibition at 20 ppm

Would you please look over these solved cases?
>  <COMPOUND>
OB1OCc2cc(F)c(-c3ccsc3Cl)cc21

>  <RESULT>
≥ 80%

$$$$
>  <COMPOUND>
OB1OCc2cc(Cl)c(-c3cc4ccccc4s3)cc21

>  <RESULT>
≥ 80%

$$$$
>  <COMPOUND>
OB1OCc2cc(Cl)c(-c3ccoc3)cc21

>  <RESULT>
≥ 80%

$$$$
>  <COMPOUND>
OB1OCc2cc(Cl)c(-c3cc4ccccc4o3)cc21

>  <RESULT>
≥ 80%

$$$$
>  <COMPOUND>
OB1OCc2cc(F)c(-c3ccsc3)cc21

>  <RESULT>
≥ 80%

$$$$

# context switch: different compound, same inhibition at 20 ppm
**Query** Can you share its inhibition at 20 ppm? I mean this compound: `O=Cc1csc(-c2cc3c(cc2Cl)COB3O)c1`
**Result** ≥ 80%

* * *

tested on: Pythium Ultimum; test: Pythium ultimum / liquid culture (seedling damping off); format: cell-based; details: Globisporangium ultimum, potato dextrose broth, 24° C., 2-3 days after application, read-out: disease control (inhibition of growth, photometrically)
READOUT_NAME: inhibition at 20 ppm

>  <MOLECULE>
Cc1cscc1-c1cc2c(cc1F)COB2O [Compound 50]

>  <inhibition at 20 ppm>
≥ 80%

$$$$
>  <MOLECULE>
Cc1nc(C)c(-c2cc3c(cc2Cl)COB3O)s1 [Compound 1]

>  <inhibition at 20 ppm>
≥ 80%

$$$$
>  <MOLECULE>
COc1c(-c2nnco2)ccc2c1B(O)OC2 [Compound 93]

>  <inhibition at 20 ppm>
≥ 80%

$$$$
>  <MOLECULE>
OB1OCc2cc(Cl)c(-c3ncno3)cc21 [Compound 14]

>  <inhibition at 20 ppm>
≥ 80%

$$$$

**Query** Tell me reported inhibition at 20 ppm for O=Cc1csc(-c2cc3c(cc2Cl)COB3O)c1 [Compound 34] , tested with Pythium Ultimum.
**Result** ≥ 80%

**Query** // next record OB1OCc2ccc(-c3ncno3)cc21 [Compound 49]
**Result** ≥ 80%

**Query** Okay, and Cc1cc(-c2cc3c(cc2F)COB3O)c(C)s1 [Compound 80] ?
**Result** ≥ 80%

**Query** Also need OB1OCc2cc(Cl)c(-c3ccncc3Cl)cc21 [Compound 89] , thanks.
**Result** ≥ 80%

**Query** Another molecule to look at: OB1OCc2cc(F)c(-c3cccs3)cc21 [Compound 6]
**Result** ≥ 80%

**Query** Then what about the molecule OB1OCc2cc(Cl)c(-c3ccco3)cc21 [Compound 2] ?
**Result** ≥ 80%

**Query** Please answer likewise for CCn1cc(-c2cc3c(cc2Cl)COB3O)cn1 [Compound 71]
**Result** ≥ 80%

* * *

READOUT_NAME: melting point

Recorded melting point, per entry:
>  <COMPOUND>
Cc1noc(-c2cc3c(cc2F)COB3O)n1

>  <melting point>
200 to 202 °C

$$$$
>  <COMPOUND>
COc1c(-c2nnco2)ccc2c1B(O)OC2

>  <melting point>
176 to 178 °C

$$$$
>  <COMPOUND>
OB1OCc2cc(F)c(-c3ncno3)cc21

>  <melting point>
204 to 206 °C

$$$$
>  <COMPOUND>
Cn1cccc1-c1cc2c(cc1Cl)COB2O

>  <melting point>
195 to 202 °C

$$$$
>  <COMPOUND>
OB1OCc2cc(F)c(-c3cnoc3)cc21

>  <melting point>
230 to 232 °C

$$$$
>  <COMPOUND>
OB1OCc2cc(Cl)c(-c3nnco3)cc21

>  <melting point>
202 to 204 °C

$$$$

**Query** Item under review: ON=Cc1ccc(-c2cc3c(cc2Cl)COB3O)o1 (single isomer, unassigned) . Reported melting point?
**Result** 188 to 193 °C

**Query** Also, `CO/N=C/c1ccc(-c2cc3c(cc2F)COB3O)o1` please.
**Result** 125 to 140 °C

**Query** // next record `OB1OCc2cc(F)c(-c3ncon3)cc21`
**Result** 226 to 228 °C

* * *

The following compounds are listed with their measured inhibition at 20 ppm values.
tested on: Monographella Nivalis(Microdochium Nivale); experiment: Monographella nivalis (Microdochium nivale) / liquid culture (foot rot cereals); assay type: cell-based; details: PDB potato dextrose broth, 24° C., 4-5 days after application, read-out: disease control (inhibition of growth, photometrically)

Reference set, count: 5
>  <COMPOUND>
OB1OCc2cc(Cl)c(-c3ccsc3Cl)cc21 [Compound 88]

>  <inhibition at 20 ppm>
≥ 80%

$$$$
>  <COMPOUND>
OB1OCc2cc(Cl)c(-c3sccc3Br)cc21 [Compound 45]

>  <inhibition at 20 ppm>
≥ 80%

$$$$
>  <COMPOUND>
CCn1cc(-c2cc3c(cc2F)COB3O)cn1 [Compound 60]

>  <inhibition at 20 ppm>
≥ 80%

$$$$
>  <COMPOUND>
Cc1cscc1-c1cc2c(cc1Cl)COB2O [Compound 53]

>  <inhibition at 20 ppm>
≥ 80%

$$$$
>  <COMPOUND>
OB1OCc2cc(F)c(-c3ccc(Cl)nc3)cc21 [Compound 13]

>  <inhibition at 20 ppm>
≥ 80%

$$$$

**Query** Given Cc1noc(-c2cc3c(cc2F)COB3O)n1 [Compound 30] , state its recorded inhibition at 20 ppm.
**Result** ≥ 80%

**Query** Cool, now CC(=O)c1ccc(-c2cc3c(cc2Cl)COB3O)o1 [Compound 39]
**Result** ≥ 80%

* * *

Quick list: melting point per entry.

Would you please look over these solved cases?
>  <GIVEN_SMILES>
O/N=C/c1ccc(-c2cc3c(cc2F)COB3O)o1

>  <melting point>
200 to 220 °C

$$$$
>  <GIVEN_SMILES>
OB1OCc2cc(Cl)c(-c3cccs3)cc21

>  <melting point>
125 to 135 °C

$$$$
>  <GIVEN_SMILES>
OB1OCc2cc(F)c(-c3ccco3)cc21

>  <melting point>
155 to 164 °C

$$$$
>  <GIVEN_SMILES>
OB1OCc2cc(Cl)c(-c3ncon3)cc21

>  <melting point>
180 to 203 °C

$$$$
>  <GIVEN_SMILES>
Cn1nnc(-c2ccc3c(c2)B(O)OC3)n1

>  <melting point>
209 to 210 °C

$$$$
>  <GIVEN_SMILES>
OB1OCc2cc(Cl)c(-c3ccco3)cc21

>  <melting point>
142 to 147 °C

$$$$

**Query** Given `Cc1nc(C)c(-c2cc3c(cc2Cl)COB3O)s1` , state its recorded melting point.
**Result** 155 to 160 °C

**Query** Again, but for `OB1OCc2cc(F)c(-c3ccc(Cl)nc3)cc21`
**Result** 213 to 215 °C

**Query** Then this compound: `OB1OCc2cc(F)c(-c3nnco3)cc21`
**Result** 237 to 239 °C

**Query** Then what about the compound `OB1OCc2cc(F)c(-c3cccs3)cc21` ?
**Result** 134 to 140 °C

**Query** `Cc1nc(-c2cc3c(cc2F)COB3O)oc1C` ?
**Result** 164 to 166 °C

**Query** Similarly, `OB1OCc2cc(Cl)c(-c3ncno3)cc21` ?
**Result** 175 to 177 °C

**Query** What do we get for `OB1OCc2ccc(-c3ncno3)cc21` ?
**Result** 179 to 180 °C

**Query** Also check `O=Cc1ccc(-c2cc3c(cc2Cl)COB3O)o1`
**Result** 145 to 165 °C

**Query** Also check `OB1OCc2ccc(-c3ncon3)cc21`
**Result** 209 to 211 °C
